// reported Ki hMC1-R/MC4-R for each item listed
target: hMC1-R (human) (UniProt Q01726); test: ratio Ki hMC1-R / Ki hMC4-R, same assay
Sequence (Q01726 whole entry): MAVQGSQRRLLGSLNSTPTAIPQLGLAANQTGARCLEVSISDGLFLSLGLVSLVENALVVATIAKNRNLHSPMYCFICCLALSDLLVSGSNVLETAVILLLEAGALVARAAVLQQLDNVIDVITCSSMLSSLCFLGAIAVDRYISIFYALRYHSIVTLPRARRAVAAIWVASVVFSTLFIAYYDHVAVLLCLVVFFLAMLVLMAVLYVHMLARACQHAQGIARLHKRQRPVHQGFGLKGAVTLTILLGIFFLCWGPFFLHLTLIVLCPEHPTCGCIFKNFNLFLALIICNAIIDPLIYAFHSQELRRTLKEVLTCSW
Bridge positions count the residues as written; N and C are the ends. Square brackets hold non-standard residues; d marks the D form. Ends that are not written are not given here. Bip = N[C@@H](Cc1ccc(-c2ccccc2)cc1)C(=O)O; 2Nal = N[C@@H](Cc1ccc2ccccc2c1)C(=O)O; d2Nal = N[C@H](Cc1ccc2ccccc2c1)C(=O)O; Nle = CCCC[C@H](N)C(=O)O; Ahx = NCCCCCC(=O)O; βAla = NCCC(=O)O
Output spec: single numeric token, no unit.

Task: For the binder [dF]CH[dF]R[Bip][βAla][dC]T-NH2 (disulfide 2-8; N-terminus assumed; SMILES C[C@@H](O)[C@H](NC(=O)[C@H]1CSSC[C@H](NC(=O)[C@H](N)Cc2ccccc2)C(=O)N[C@@H](Cc2c[nH]cn2)C(=O)N[C@H](Cc2ccccc2)C(=O)N[C@@H](CCCNC(=N)N)C(=O)N[C@@H](Cc2ccc(-c3ccccc3)cc2)C(=O)NCCC(=O)N1)C(N)=O) [D-Phe-c(Cys-His-D-Phe-Arg-Bip-β-Ala-D-Cys)-Thr-NH2] , what Ki hMC1-R/MC4-R is on record?
Output: 0.01

Task: For the binder Ac-[Nle]CH[d2Nal]RW[Ahx]C-NH2 (disulfide 2-8) [Ac-Nle-c(Cys-His-D-2-Nal-Arg-Trp-Ahx-Cys)-NH2] , what Ki hMC1-R/MC4-R is on record?
Output: 0.33

Task: For the binder Ac-[Nle]C[dA]H[d2Nal]R[2Nal]C-NH2 (disulfide 2-8; SMILES CCCC[C@H](NC(C)=O)C(=O)N[C@H]1CSSC[C@@H](C(N)=O)NC(=O)[C@H](Cc2ccc3ccccc3c2)NC(=O)[C@H](CCCNC(=N)N)NC(=O)[C@@H](Cc2ccc3ccccc3c2)NC(=O)[C@H](Cc2c[nH]cn2)NC(=O)[C@@H](C)NC1=O) [Ac-Nle-c(Cys-D-Ala-His-D-2-Nal-Arg-2-Nal-Cys)-NH2] , what Ki hMC1-R/MC4-R is on record?
Output: 12.8
